- Measurement Protocol: Experimental saturated solubility of ENO in excipients
- Assay type: physicochemical
- Protocol Conditions: NMP (N-methyl-2-pyrrolidone), 40 °C, thermodynamic from solid
Measurement Name: solubility at 72 h (mg/mL)
Write the value in mg/mL as a bare number.

stdin: Given `CCn1cc(C(=O)O)c(=O)c2cc(F)c(N3CCNCC3)nc21` , state its recorded solubility at 72 h.
stdout: 6.7
